Biological target: human insulin receptor (HIR) (human, UniProt P06213)
Assay: competition
pKd: −log10 of the molar value.
PROPERTY NAME: pKd

Below: 3 binders and their reported pKd.
{"columns": ["BINDER", "pKd"],
 "data": [
  ["HPTSKEIYAKLLK [S122]", 5.03],
  ["ANFYDWFVAELG [S242]", 5.70],
  ["AAAAFYDWFAAAAAKK [S168]", 5.42]
]}

a = SDGFYNAIELLS [S118]
b = S456 (not fully specified; listing feature) chain 1: XGSLDESFYDWFERQLGKK chain 2: XKEWLDQEWAWVQCEVYGRGCPSEE
Given the listed records, identify the one among a and b with higher pKd. Could you answer with the label of the item you picked? b
(b: 8.62, a: 5.62)
